Test: Selectivity index, ratio of CC50 for cytotoxicity against African green monkey Vero cells to IC50 for antiplasmodial activity against artemisinin-resistant Plasmodium falciparum F32
Format: toxicity, cell-based
Conditions: read-out: Ratio CC50/IC50
Overview of reported selectivity ratio across a group of compounds:

[
  {
    "Substance Smiles": "NCCNc1ccnc2cc(Cl)ccc12",
    "Sign": ">",
    "selectivity ratio": 925
  },
  {
    "Substance Smiles": "C[C@H]1[C@@H](O)O[C@@H]2O[C@@]3(C)CC[C@H]4[C@H](C)CC[C@@H]1[C@@]24OO3",
    "Sign": "=",
    "selectivity ratio": 12000
  },
  {
    "Substance Smiles": "Cc1cc(O)c2c(c1)C(=O)c1cc(OCCOCCNCCNc3ccnc4cc(Cl)ccc34)cc(O)c1C2=O",
    "Sign": "=",
    "selectivity ratio": 222
  },
  {
    "Substance Smiles": "O=C1C(O)=C([C@H]2CC[C@H](c3ccc(Cl)cc3)CC2)C(=O)c2ccccc21",
    "Sign": "=",
    "selectivity ratio": 3700
  },
  {
    "Substance Smiles": "Cc1cc(O)c2c(c1)C(=O)c1cc(O)cc(O)c1C2=O",
    "Sign": "<",
    "selectivity ratio": 0.7
  },
  {
    "Substance Smiles": "Cc1cc(O)c2c(c1)C(=O)c1cc(OCCOCCN3CCN(c4ccnc5cc(Cl)ccc45)CC3)cc(O)c1C2=O",
    "Sign": "=",
    "selectivity ratio": 15
  },
  {
    "Substance Smiles": "Cc1cc(O)c2c(c1)C(=O)c1cc(OCCN3CCN(c4ccnc5cc(Cl)ccc45)CC3)cc(O)c1C2=O",
    "Sign": ">",
    "selectivity ratio": 13
  },
  {
    "Substance Smiles": "Clc1ccc([C@@H](c2ccccc2)N2CCN(CCNc3ccnc4cc(Cl)ccc34)CC2)cc1",
    "Sign": "=",
    "selectivity ratio": 140
  },
  {
    "Substance Smiles": "Clc1ccc([C@@H](c2ccccc2)N2CCNCC2)cc1",
    "Sign": "<",
    "selectivity ratio": 2
  }
]

----------
# IC50 per entry
Tested on: Plasmodium falciparum
Test: Antiplasmodial activity against chloroquine-resistant Plasmodium falciparum clinical isolate IPC8262 assessed as inhibition of parasite growth incubated for 48 hrs of SYBR green fluorescence-based method
Assay type: functional, organism-based

[
  {
    "Molecule": "O=C1C(O)=C([C@H]2CC[C@H](c3ccc(Cl)cc3)CC2)C(=O)c2ccccc21 [ATOVAQUONE]",
    "Result Unit": "nM",
    "IC50": 0.7
  },
  {
    "Molecule": "NCCNc1ccnc2cc(Cl)ccc12",
    "Result Unit": "nM",
    "IC50": 134
  },
  {
    "Molecule": "Clc1ccc([C@@H](c2ccccc2)N2CCN(CCNc3ccnc4cc(Cl)ccc34)CC2)cc1",
    "Result Unit": "nM",
    "IC50": 33
  },
  {
    "Molecule": "C[C@H]1[C@@H](O)O[C@@H]2O[C@@]3(C)CC[C@H]4[C@H](C)CC[C@@H]1[C@@]24OO3 [ARTENIMOL]",
    "Result Unit": "nM",
    "IC50": 2.5
  },
  {
    "Molecule": "Cc1cc(O)c2c(c1)C(=O)c1cc(OCCOCCNCCNc3ccnc4cc(Cl)ccc34)cc(O)c1C2=O",
    "Result Unit": "nM",
    "IC50": 33
  }
]

----------
Test system: Plasmodium falciparum
Experiment: Antiplasmodial activity against artemisinin-sensitive Plasmodium falciparum F32 assessed as inhibition of parasite growth incubated for 48 hrs of SYBR green fluorescence-based method
Type: functional, organism-based
Conditions: F32, 48 h
Below, each entry is listed with its recorded IC50.
Parameter: IC50

[
  {
    "Substance Smiles": "CCOCCOc1cc(O)c2c(c1)C(=O)c1cc(C)cc(O)c1C2=O",
    "Parameter": "IC50",
    "Result": "> 10000 nM"
  },
  {
    "Substance Smiles": "Clc1ccc([C@@H](c2ccccc2)N2CCNCC2)cc1",
    "Parameter": "IC50",
    "Result": "6000 nM"
  },
  {
    "Substance Smiles": "Clc1ccc([C@@H](c2ccccc2)N2CCN(CCNc3ccnc4cc(Cl)ccc34)CC2)cc1",
    "Parameter": "IC50",
    "Result": "75 nM"
  },
  {
    "Substance Smiles": "Cc1cc(O)c2c(c1)C(=O)c1cc(OCCOCCNCCNc3ccnc4cc(Cl)ccc34)cc(O)c1C2=O",
    "Parameter": "IC50",
    "Result": "59 nM"
  },
  {
    "Substance Smiles": "Clc1ccc2c(N3CCNCC3)ccnc2c1",
    "Parameter": "IC50",
    "Result": "1400 nM"
  },
  {
    "Substance Smiles": "C[C@H]1[C@@H](O)O[C@@H]2O[C@@]3(C)CC[C@H]4[C@H](C)CC[C@@H]1[C@@]24OO3",
    "Parameter": "IC50",
    "Result": "2.2 nM"
  },
  {
    "Substance Smiles": "NCCNc1ccnc2cc(Cl)ccc12",
    "Parameter": "IC50",
    "Result": "28 nM"
  }
]

----------
// reported CC50 at 48 h for each item listed
Experiment: Cytotoxicity against African green monkey Vero cells assessed as cell metabolic activity incubated for 48 hrs by MTT assay
Format: toxicity, cell-based
Details: chlorocebus sabaeus

[
  {
    "Molecule": "Cc1cc(O)c2c(c1)C(=O)c1cc(OCCOCCN3CCN(c4ccnc5cc(Cl)ccc45)CC3)cc(O)c1C2=O",
    "Result Unit": "µM",
    "Sign": "=",
    "CC50 at 48 h": 12
  },
  {
    "Molecule": "O=C1C(O)=C([C@H]2CC[C@H](c3ccc(Cl)cc3)CC2)C(=O)c2ccccc21",
    "Result Unit": "µM",
    "Sign": "=",
    "CC50 at 48 h": 7
  },
  {
    "Molecule": "Clc1ccc([C@@H](c2ccccc2)N2CCNCC2)cc1",
    "Result Unit": "µM",
    "Sign": "=",
    "CC50 at 48 h": 20
  },
  {
    "Molecule": "Clc1ccc([C@@H](c2ccccc2)N2CCN(CCNc3ccnc4cc(Cl)ccc34)CC2)cc1",
    "Result Unit": "µM",
    "Sign": "=",
    "CC50 at 48 h": 14
  },
  {
    "Molecule": "Cc1cc(O)c2c(c1)C(=O)c1cc(OCCN3CCN(c4ccnc5cc(Cl)ccc45)CC3)cc(O)c1C2=O",
    "Result Unit": "µM",
    "Sign": ">",
    "CC50 at 48 h": 10
  },
  {
    "Molecule": "CCN(CC)CCCC(C)Nc1ccnc2cc(Cl)ccc12 (stereo not given)",
    "Result Unit": "µM",
    "Sign": ">",
    "CC50 at 48 h": 50
  },
  {
    "Molecule": "C[C@H]1[C@@H](O)O[C@@H]2O[C@@]3(C)CC[C@H]4[C@H](C)CC[C@@H]1[C@@]24OO3",
    "Result Unit": "µM",
    "Sign": "=",
    "CC50 at 48 h": 30
  },
  {
    "Molecule": "NCCNc1ccnc2cc(Cl)ccc12",
    "Result Unit": "µM",
    "Sign": ">",
    "CC50 at 48 h": 50
  },
  {
    "Molecule": "Cc1cc(O)c2c(c1)C(=O)c1cc(O)cc(O)c1C2=O",
    "Result Unit": "µM",
    "Sign": "=",
    "CC50 at 48 h": 34
  },
  {
    "Molecule": "Cc1cc(O)c2c(c1)C(=O)c1cc(OCCOCCNCCNc3ccnc4cc(Cl)ccc34)cc(O)c1C2=O",
    "Result Unit": "µM",
    "Sign": "=",
    "CC50 at 48 h": 12
  }
]

----------
Test: Stability in human plasma assessed as parent compound remaining at 1 uM measured after 2 hrs by LC-MS/MS analysis
Assay type: ADME, cell-free
Settings: read-out: Stability

[
  {
    "Substance Smiles": "Clc1ccc([C@@H](c2ccccc2)N2CCN(CCNc3ccnc4cc(Cl)ccc34)CC2)cc1",
    "remaining at 2 h, 1 µM": "100%"
  },
  {
    "Substance Smiles": "Cc1cc(O)c2c(c1)C(=O)c1cc(OCCOCCNCCNc3ccnc4cc(Cl)ccc34)cc(O)c1C2=O",
    "remaining at 2 h, 1 µM": "100%"
  }
]
